assay_notes: chemical genetic growth profiling, strain panel (AID 1159580);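 also: tested at 20 µM; growth read once vehicle control cultures reached saturation at 30 °C; 1 = growth at the plate median or of vehicle wells; lower values mean less growth of the strain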
particulars: S. cerevisiae deletion strains, growth OD, locus YOR231W, strain MKK1, stronger effect = lower value
About 2,000 (36%) of roughly 5,500 compounds were called active. Not shown: some 18% with an inconclusive outcome. This is one part of the list.
Label t when normalized growth < 1; otherwise f.

Query: Does the reported normalized growth of `O=S(=O)(NCc1ccc(C(F)(F)F)cc1)c1cc(Br)c(Br)s1` stay below 1?
Response: t

Query: Does the reported normalized growth of `O=c1oc2ccccc2cc1[N+](=O)[O-]` stay below 1?
Response: t

Query: Does the reported normalized growth of `NC1(C(=O)O)CCCC1` stay below 1?
Response: f

Query: Does the reported normalized growth of `CN/C(=C\[N+](=O)[O-])NCCSCc1csc(CN(C)C)n1` stay below 1?
Response: f

Query: Does the reported normalized growth of `Clc1ccc(Oc2ccnc3cc(Cl)ccc23)cc1` stay below 1?
Response: t

Query: Does the reported normalized growth of COc1ccc2c(c1)OCC(Cc1ccc(O)c(OC)c1)C2=O (stereo not drawn) stay below 1?
Response: f

Query: Does the reported normalized growth of `O=S(=O)(NCc1ccc(C(F)(F)F)cc1)c1cccc(C(F)(F)F)c1` stay below 1?
Response: t

Query: Does the reported normalized growth of `C/C(=N/NC(=S)NCC(C)(C)C)c1cc(F)cc(Cl)c1O` stay below 1?
Response: t

Query: Does the reported normalized growth of `O=S(=O)(Nc1cc(Cl)c(Cl)cc1Cl)c1cc(C(F)(F)F)cc(C(F)(F)F)c1` stay below 1?
Response: t

Query: Does the reported normalized growth of CC1CCC(NC(=O)N(CCCl)N=O)CC1 (stereo not drawn) stay below 1?
Response: t

---

assay_notes: chemical genetic growth profiling, strain panel (AID 1159580)
particulars: S. cerevisiae deletion strains, growth OD, locus YGR229C, strain SMI1
About 2,000 (36%) of roughly 5,500 compounds were called active. About 18% were inconclusive and are not listed. Cut-off read from the data, not from the text of the source: active = normalized growth mostly below about 0.91 (no sharp cut-off); inconclusive = no clear call, values can overlap the other calls; inactive = mostly above about 0.92. Some of the results follow.
Please reply with one of these outcomes: active, inactive

Query: // return assay outcome for `COc1cc(OC)c2c(=O)cc(-c3ccccc3)oc2c1`
Response: active

Query: // return assay outcome for COC1C=CC23c4cc5c(cc4CN(CC2O)[C@@H]3C1)OCO5 (stereo partly specified)
Response: inactive

Query: // return assay outcome for CN[C@@H]1C(OC2[C@H](O[C@H]3[C@H](O)[C@@H](O)[C@H](N=C(N)N)[C@@H](O)[C@@H]3N=C(N)N)OC(C)[C@]2(O)CO)OC(CO)C(O)C1O (stereo partly specified)
Response: inactive

Query: // return assay outcome for `CCOC(=O)CNc1ccc(Cl)c(Cl)c1`
Response: inactive

Query: // return assay outcome for CCCCCCCCCCCC(=O)OCC(COP(=O)(O)OCC(O)COP(=O)(O)OCC(COC(=O)CCCCCCCCCCC)OC(=O)CCCCCCCCCCC)OC(=O)CCCCCCCCCCC (stereo unspecified)
Response: active

Query: // return assay outcome for `CC(=O)c1ccc(N2C(=O)CSCC2=O)cc1`
Response: inactive

Query: // return assay outcome for CN(C)CCC(c1ccccc1)c1ccccn1 (stereo unspecified)
Response: inactive

Query: // return assay outcome for O=C(O)C(O)C(O)C(O)C(O)C(=O)O (stereo unspecified)
Response: inactive

Query: // return assay outcome for `FC(F)(F)c1ccc2[nH]c(=S)[nH]c2c1`
Response: inactive

Query: // return assay outcome for `COc1ccc(-c2cc(=O)c3c(OC)cc(OC)cc3o2)cc1`
Response: inactive

Query: // return assay outcome for O=C(O)C(O)C(O)C(=O)O (stereo unspecified)
Response: inactive

---

assay_notes: chemical genetic growth profiling, strain panel (AID 1159580)
particulars: S. cerevisiae deletion strains, growth OD, locus YMR223W, strain ubp8, stronger effect = lower value
Hit rate of the full screen: of about 5,500 compounds, about 2,000 (36%) were called active. Not shown: some 18% with an inconclusive outcome. The list shows a part of the results.
reported_endpoint: normalized growth
Answer with a number only.

Query: Sample `O=C(O)COc1ccc(Cl)cc1Cl` — what was its normalized growth?
Response: 1.03

Query: Sample Clc1ccc(C(c2ccccc2Cl)C(Cl)Cl)cc1 (stereo unspecified) — what was its normalized growth?
Response: 0.978

Query: Sample `Cc1cc(/C=C/c2ccc3cc(N(C)C)ccc3[n+]2C)c(C)n1-c1ccccc1` — what was its normalized growth?
Response: 0.949

Query: Sample `COc1cc(OC)c2c(=O)cc(-c3ccccc3)oc2c1` — what was its normalized growth?
Response: 0.875

Query: Sample `Cc1nnc(NS(=O)(=O)c2ccc(N)cc2)s1` — what was its normalized growth?
Response: 0.997

Query: Sample `COc1cc(C)c2c(=O)cc(-c3ccccc3)oc2c1` — what was its normalized growth?
Response: 0.967

---

assay_notes: chemical genetic growth profiling, strain panel (AID 1159580);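 also: tested at 20 µM; growth read once vehicle control cultures reached saturation at 30 °C; 1 = growth at the plate median or of vehicle wells; lower values mean less growth of the strain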
particulars: S. cerevisiae deletion strains, growth OD, locus YOR083W, strain WHI5
Screen size: about 5,500 compounds; about 2,000 (36%) were called active. About 18% were inconclusive and are not listed. Rule as the data show it: active = normalized growth mostly below about 0.91 (no sharp cut-off); inconclusive = no clear call, values can overlap the other calls; inactive = mostly above about 0.92. Some of the results follow.
Please reply with one of these outcomes: y = active, n = inactive

Query: // return assay outcome for Clc1ccc(CSC(Cn2ccnc2)c2ccc(Cl)cc2Cl)cc1 (configuration not stated)
Response: y

Query: // return assay outcome for `CC(C)(S)[C@@H](N)C(=O)O`
Response: n

Query: // return assay outcome for `O=C(O)CCCCCCCC(=O)O`
Response: n

Query: // return assay outcome for `N[C@@H](C(=O)O)[C@@H](O)[C@H](O)[C@H](O)CO`
Response: n

Query: // return assay outcome for CCCCC(=O)O[C@]1(C(=O)CO)CCC2C3CCC4=CC(=O)CC[C@]4(C)C3[C@@H](O)C[C@@]21C (some centres not stated)
Response: n

Query: // return assay outcome for Clc1ccc(COC(Cn2ccnc2)c2ccc(Cl)cc2Cl)c(Cl)c1 (configuration not stated)
Response: y

Query: // return assay outcome for `C1N2CN3CN1CN(C2)C3`
Response: n

Query: // return assay outcome for C[C@]12C=CC(=O)C=C1CCC1C2[C@@H](O)C[C@@]2(C)C1CC[C@]2(O)C(=O)CO (some centres not stated)
Response: n

Query: // return assay outcome for `Cc1oncc1C(=O)Nc1ccc(C(F)(F)F)cc1`
Response: n

Query: // return assay outcome for `CN(C/C=C/C#CC(C)(C)C)Cc1cccc2ccccc12`
Response: y

Query: // return assay outcome for `NCCCCC(=O)O`
Response: n

Query: // return assay outcome for `O=C(O)[C@@H](S)[C@@H](S)C(=O)O`
Response: n

---

assay_notes: chemical genetic growth profiling, strain panel (AID 1159580);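 also: tested at 20 µM; growth read once vehicle control cultures reached saturation at 30 °C; 1 = growth at the plate median or of vehicle wells; lower values mean less growth of the strain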
particulars: S. cerevisiae deletion strains, growth OD, locus YEL003W, strain gim4, stronger effect = lower value
Screen size: about 5,500 compounds; about 2,000 (36%) were called active. Inconclusive results (about 18%) are left out. Some of the results follow.
Kindly state normalized growth for each of the entries shown.
Answer with a number only.

Query: Sample CC(C)=CC1C(C(=O)OCc2cccc(Oc3ccccc3)c2)C1(C)C (centres undefined) — what was its normalized growth?
Response: 1.01

Query: Sample `C=C1C(=O)[C@]23[C@H](O)[C@H]1CC[C@H]2[C@@]12CO[C@]3(O)[C@H](O)[C@@H]1C(C)(C)CC[C@@H]2O` — what was its normalized growth?
Response: 0.992

Query: Sample O=c1[nH]c(=O)n(C2C[C@H](O)[C@@H](CO)O2)cc1C(F)(F)F (some centres undefined) — what was its normalized growth?
Response: 0.979

Query: Sample C[C@]12C=CC(=O)C=C1CCC1C2[C@@H](O)C[C@@]2(C)C1CC[C@]2(O)C(=O)CO (some centres undefined) — what was its normalized growth?
Response: 0.982

Query: Sample `O=C(O)COc1ccc(Cl)cc1Cl` — what was its normalized growth?
Response: 0.995

Query: Sample `CC[C@@H]1OC(=O)C[C@@H](O)[C@H](C)[C@@H](O[C@@H]2O[C@H](C)[C@@H](O)[C@H](N(C)C)[C@H]2O)[C@@H](CCN2C[C@H](C)C[C@H](C)C2)C[C@@H](C)C(=O)/C=C/C(C)=C\[C@@H]1CO[C@@H]1O[C@H](C)[C@@H](O)[C@@H](OC)[C@H]1OC` — what was its normalized growth?
Response: 1.01

Query: Sample `CC(O)(P(=O)(O)O)P(=O)(O)O` — what was its normalized growth?
Response: 0.982

Query: Sample Clc1ccc(C(c2ccccc2Cl)C(Cl)Cl)cc1 (centres undefined) — what was its normalized growth?
Response: 0.969

Query: Sample `Cc1nnc(NS(=O)(=O)c2ccc(N)cc2)s1` — what was its normalized growth?
Response: 1

---

assay_notes: chemical genetic growth profiling, strain panel (AID 1159580);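 also: tested at 20 µM; growth read once vehicle control cultures reached saturation at 30 °C; 1 = growth at the plate median or of vehicle wells; lower values mean less growth of the strain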
particulars: S. cerevisiae deletion strains, growth OD, locus YOR083W, strain WHI5, stronger effect = lower value
Among all 5,500 compounds or so, about 2,000 (36%) were called active. Not shown: some 18% with an inconclusive outcome. The list shows a part of the results.
reported_endpoint: normalized growth
Answer with a number only.

Query: Sample C[C@]12CCC3c4ccc(O)cc4CCC3C1CCC2=O (stereo partly drawn) — what was its normalized growth?
Response: 0.98

Query: Sample CC(=O)O[C@H]1C[C@@H](OC(C)=O)C(C)(C)C2C[C@@H](O)[C@]3(C)C(CC[C@@]4(C)[C@H](c5ccoc5)OC(=O)[C@H]5O[C@]543)[C@]21C (stereo partly drawn) — what was its normalized growth?
Response: 1.04

Query: Sample CC(=O)Oc1ccc2c(c1)CCC1C2CC[C@]2(C)C(=O)CCC12 (stereo partly drawn) — what was its normalized growth?
Response: 0.976

Query: Sample CC12CCC3C(=CCc4cc(O)ccc43)C1CCC2=O (stereo not drawn) — what was its normalized growth?
Response: 0.934

Query: Sample CC(=O)O[C@H]1CC[C@@]2(C)C(C[C@@H](OC(C)=O)[C@]3(C)C2CC[C@@]2(C)[C@H](c4ccoc4)OC(=O)[C@H]4O[C@]423)C1(C)C (stereo partly drawn) — what was its normalized growth?
Response: 1.03

Query: Sample CC1(C)C(=O)[C@@H]2O[C@@H]2[C@@]2(C)C1C[C@@H](O)[C@]1(C)C2CC[C@@]2(C)[C@H](c3ccoc3)OC(=O)C3OC321 (stereo partly drawn) — what was its normalized growth?
Response: 0.992

Query: Sample CC(=O)O[C@@H]1CC2C(C)(C)[C@H](O)C=C[C@]2(C)C2CC[C@@]3(C)[C@H](c4ccoc4)OC(=O)C4OC43[C@@]21C (stereo partly drawn) — what was its normalized growth?
Response: 1

Query: Sample C[C@]12CCC3c4ccc(OC(=O)c5ccccc5)cc4CCC3C1CCC2=O (stereo partly drawn) — what was its normalized growth?
Response: 1.03
